Measured inhibition at 10 µM values are reported for all entries that follow.
target: human OX1 receptor (Homo sapiens); construct: expressed in transfected cells; host or cells: CHO cells; assay: Measurement of orexin receptor antagonistic activity (calcium fluorescence, FLIPRtetra); type: cell-based; conditions: CHO, 10 μM test compound; CHO cells expressing human OX1 receptor; OX-A 1 nM; read-out: Human Orexin1 receptor inhibition (at 10 μM)
Sequence (O43613 whole entry): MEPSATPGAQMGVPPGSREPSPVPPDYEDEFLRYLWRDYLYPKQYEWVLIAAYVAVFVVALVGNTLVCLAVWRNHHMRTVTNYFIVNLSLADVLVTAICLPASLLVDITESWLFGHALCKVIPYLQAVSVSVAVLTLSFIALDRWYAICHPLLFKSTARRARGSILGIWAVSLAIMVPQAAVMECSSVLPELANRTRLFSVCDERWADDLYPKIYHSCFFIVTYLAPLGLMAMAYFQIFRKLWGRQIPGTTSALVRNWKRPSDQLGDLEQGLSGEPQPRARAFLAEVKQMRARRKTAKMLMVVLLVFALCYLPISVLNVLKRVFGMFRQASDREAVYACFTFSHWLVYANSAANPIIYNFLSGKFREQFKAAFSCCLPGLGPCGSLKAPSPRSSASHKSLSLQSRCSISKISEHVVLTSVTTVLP
MEASUREMENT_LABEL: inhibition at 10 µM (%)

| COMPOUND | VALUE |
| --- | --- |
| Cc1cc(N2CCN(C(=O)c3cccc(F)c3-c3ncccn3)C[C@H](C)O2)nc(C)n1 | 15 |
| Cc1cc(C)nc(N2CCN(C(=O)c3cccc4ccccc34)CCO2)n1 | 76 |
| Cc1nc(C(F)F)cc(N2C[C@H](C)N(C(=O)c3cc(F)ccc3-n3nccn3)[C@H](C)CO2)n1 | 90 |
| Cc1ccc(-n2nccn2)c(C(=O)N2CCON(c3cccc(C)n3)CC2)c1 | 44 |
| Cc1nc(N2CCN(C(=O)c3cc(F)c(F)cc3-c3ncccn3)C[C@H](C)O2)cc(C(F)(F)F)n1 | 78 |
| Cc1cc(C)nc(N2CCN(C(=O)c3cccc4c3ccn4C)CCO2)n1 | 34 |
| Cc1cc(N2CCN(C(=O)c3cc(F)ccc3-n3nccn3)C[C@H](C)O2)nc(C)n1 | 47 |
| Cc1nccc(N2CCN(C(=O)c3cc(Cl)ccc3-c3ncccn3)C[C@H](C)O2)n1 | 72 |

###

Measured inhibition at 10 µM values are reported for all entries that follow.
Target: human OX2 receptor (Homo sapiens, UniProt O43614)
Construct: expressed in transfected cells; host or cells: CHO cells
Sequence (O43614 1-444): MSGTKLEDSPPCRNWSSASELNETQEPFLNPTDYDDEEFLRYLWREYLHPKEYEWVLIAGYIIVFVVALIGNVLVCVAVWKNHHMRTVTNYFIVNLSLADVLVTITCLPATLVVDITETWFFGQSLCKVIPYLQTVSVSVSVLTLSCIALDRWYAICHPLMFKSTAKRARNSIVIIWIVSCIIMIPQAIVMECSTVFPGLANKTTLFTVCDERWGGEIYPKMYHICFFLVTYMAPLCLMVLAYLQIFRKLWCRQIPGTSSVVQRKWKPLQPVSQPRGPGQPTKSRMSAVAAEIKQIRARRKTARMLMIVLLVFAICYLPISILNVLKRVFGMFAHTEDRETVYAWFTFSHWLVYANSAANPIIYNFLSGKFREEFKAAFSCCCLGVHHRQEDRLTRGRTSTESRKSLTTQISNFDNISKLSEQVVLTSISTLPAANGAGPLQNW
Test: Measurement of orexin receptor antagonistic activity (calcium fluorescence, FLIPRtetra)
Assay type: cell-based
Details: CHO, 10 μM test compound; CHO cells expressing human OX2 receptor; OX-A 0.3 nM; read-out: Human Orexin2 receptor inhibition (at 10 μM)
Where a name gives a salt, the structure may show the parent alone.

| COMPOUND | inhibition at 10 µM (%) |
| --- | --- |
| COc1cccc(N2CCN(C(=O)c3cc(C)ccc3-n3nccn3)[C@H](C)CO2)n1 [Example 126] | 97 |
| C[C@@H]1CON(c2ncc(F)c(O)n2)CCN1C(=O)c1ccccc1-n1nccn1 [Example 149] | -6 |
| Cc1nc(C(F)F)cc(N2CCN(C(=O)c3ccccc3-n3nccn3)C[C@H](C)O2)n1 [Example 93] | 100 |
| Cc1cc(C)nc(N2CCN(C(=O)c3ccc(C#N)cc3)CCO2)n1 [Example 50] | -3 |
| COc1cccc(N2CCN(C(=O)c3cc(C)ccc3-n3nccn3)[C@H](C)CO2)c1 [Example 120] | 100 |
| Cc1cc(N2CCN(C(=O)c3ccccc3-n3nccn3)[C@H](C)CO2)nc(C)n1 [Example 148] | 100 |
| COc1cccnc1N1CCN(C(=O)c2cc(C)ccc2-n2nccn2)[C@H](C)CO1 [Example 123] | 74 |
| Cc1ccc(-n2nccn2)c(C(=O)N2CCN(c3nc(C)cnc3C)OC[C@H]2C)c1 [Example 129] | 86 |
| Cc1cc(N2CCN(C(=O)c3cc(Cl)ccc3-n3nccn3)CCO2)nc(C)n1 [Example 25] | 98 |
| Cc1cc(N2CCN(C(=O)c3cc(Cl)ccc3-c3ncc(F)cn3)CCO2)nc(C)n1 [Example 224] | 100 |
| COC(=O)c1cc(N2CCN(C(=O)c3cc(Cl)ccc3-n3nccn3)C[C@H](C)O2)nc(C)n1 [Example 207] | 81 |
| Cc1cc(C)nc(N2CCN(C(=O)c3cccc4c3ccn4C)CCO2)n1 [Example 72] | 94 |
| Cc1cc(N2CCN(C(=O)c3cc(C(F)(F)F)ccc3-n3nccn3)CCO2)nc(C)n1 [Example 202] | 102 |
| Cc1cc(N2CCN(C(=O)c3ccccc3-n3nccn3)[C@H](C)CO2)nc(C2(C)CC2)n1 [Example 155, hydrochloride] | 103 |
| Cc1cc(C)nc(N2CCN(C(=O)c3cc(Cl)ccc3Cl)CCO2)n1 [Example 54] | 84 |
| C[C@@H]1CON(c2cc(C3CC3)ncn2)CCN1C(=O)c1ccccc1-n1nccn1 [Example 150] | 99 |
| Cc1cc(N2CCN(C(=O)c3cc(F)c(F)cc3-n3nccn3)C[C@H](C)O2)nc(C(F)(F)F)n1 [Example 108] | 101 |
| Cc1cc(C)nc(N2CCN(C(=O)c3cc(C)ccc3-n3nccn3)CCO2)c1 [Example 34] | 99 |
| Cc1ccc(-c2ncccn2)c(C(=O)N2CCN(c3cc(C)nc(C)n3)O[C@@H](C)C2)c1 [Example 196] | 100 |
| Cc1cc(C)nc(N2CCN(C(=O)c3cccc4ccccc34)CCO2)n1 [Example 64] | 101 |
| Cc1cccc(N2CCN(C(=O)c3ccccc3-c3nccs3)C[C@H](C)O2)n1 [Example 89] | 97 |
| Cc1cc(N2CCN(C(=O)c3ccccc3C#N)C[C@H](C)O2)nc(C)n1 [Example 209] | 18 |
| Cc1ccc(-n2nccn2)c(C(=O)N2[C@H](C)CON(c3cc(C)nc(C)n3)C[C@@H]2C)c1 [Example 176] | 101 |
| Cc1nccc(N2C[C@H](C)N(C(=O)c3ccccc3-n3nccn3)[C@H](C)CO2)n1 [Example 173] | 103 |
| Cc1ccc(-n2nccn2)c(C(=O)N2CCN(c3ccc(F)cn3)OC[C@H]2C)c1 [Example 119] | 92 |
| Cc1cc(N2C[C@@H](C)N(C(=O)c3ccccc3-n3nccn3)[C@@H](C)CO2)nc(C)n1 [Example 185] | 31 |
| Cc1cc(N2CCN(C(=O)c3ccccc3-c3ncc(F)cn3)CCO2)nc(C)n1 [Example 222] | 99 |
| Cc1cc(N2CCN(C(=O)c3ccccc3-n3nccn3)[C@H](C)CO2)nc(C(C)(C)C)n1 [Example 154] | 91 |
| C[C@H]1CN(C(=O)c2ccccc2-n2nccn2)CCN(c2cc(C(F)F)nc(C3CC3)n2)O1 [Example 95] | 97 |

###

Measured inhibition at 10 µM values are reported for all entries that follow.
Target: human OX2 receptor (Homo sapiens)
Construct: expressed in transfected cells; host or cells: CHO cells
Sequence (O43614 1-444): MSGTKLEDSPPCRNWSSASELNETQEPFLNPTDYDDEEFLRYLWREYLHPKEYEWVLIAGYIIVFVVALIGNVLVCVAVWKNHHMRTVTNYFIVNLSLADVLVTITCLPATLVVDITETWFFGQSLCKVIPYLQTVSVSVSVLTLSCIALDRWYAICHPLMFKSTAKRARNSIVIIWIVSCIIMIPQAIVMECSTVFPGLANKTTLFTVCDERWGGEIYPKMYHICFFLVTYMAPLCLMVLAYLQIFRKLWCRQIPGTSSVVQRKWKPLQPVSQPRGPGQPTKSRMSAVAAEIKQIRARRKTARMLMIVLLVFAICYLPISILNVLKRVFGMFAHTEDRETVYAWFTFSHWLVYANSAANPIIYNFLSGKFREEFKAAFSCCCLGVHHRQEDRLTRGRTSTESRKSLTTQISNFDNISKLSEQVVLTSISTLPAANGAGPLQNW
Assay: Measurement of orexin receptor antagonistic activity (calcium fluorescence, FLIPRtetra)
Format: cell-based
Settings: CHO, 10 μM test compound; CHO cells expressing human OX2 receptor; OX-A 0.3 nM; read-out: Human Orexin2 receptor inhibition (at 10 μM)
Structures can show the parent of a compound that is named as a salt.

| MOLECULE | MEASURED_TARGET | QUANTITY_UNIT | inhibition at 10 µM |
| --- | --- | --- | --- |
| COc1cccc(N2CCN(C(=O)c3ccccc3-c3nccs3)CCO2)n1 [Example 36] | human OX2 receptor (Homo sapiens) | % | 100 |
| Cc1ccc(-n2nccn2)c(C(=O)N2CCN(c3ncc4sccc4n3)OC[C@H]2C)c1 [Example 116] | human OX2 receptor (Homo sapiens) | % | 100 |
| Cc1nc(N2CCN(C(=O)c3cc(F)c(F)cc3-c3ncccn3)C[C@H](C)O2)cc(C(F)(F)F)n1 [Example 227] | human OX2 receptor (Homo sapiens) | % | 97 |
| Cc1cc(N2CC(C)N(C(=O)c3ccccc3-n3nccn3)C[C@H](C)O2)nc(C)n1 (some centres unmarked) [Example 189] | human OX2 receptor (Homo sapiens) | % | 57 |
| Cc1cc(N2CCN(C(=O)c3cc(F)ccc3-c3nccs3)C[C@H](C)O2)nc(C)n1 [Example 87, hydrochloride] | human OX2 receptor (Homo sapiens) | % | 102 |
| Cc1cc(C)nc(N2CCN(C(=O)c3cccc4c3OCC4)CCO2)n1 [Example 74] | human OX2 receptor (Homo sapiens) | % | 57 |
| Cc1cc(N2CCN(C(=O)c3ccccc3C3CCC3)CCO2)nc(C)n1 [Example 21] | human OX2 receptor (Homo sapiens) | % | 99 |
| Cc1cc(N2CCN(C(=O)c3cc(F)c(F)cc3-c3ncc(F)cn3)CCO2)nc(C)n1 [Example 223] | human OX2 receptor (Homo sapiens) | % | 101 |

Reference source: patent US10131653B2
